Assay: inhibitors of HIV fusion peptide binding, primary screen, biochemical, uHTS, fluorescence dequenching (AID 1986)
Conditions: cell-free peptide binding, 30 min, at 20 µM, stronger effect = higher value
About 890 (0.31%) of roughly 290,000 compounds were called active. Only a selection was taken, and actives are over-represented in it overall.
Field: inhibition. Provide a value for each of the compounds that follow.
Give bare numbers, in %.

Previously resolved entries follow.
>  <compound>
O=C(NC1CC1)C1CCN(C2CCN(C(=O)c3c(F)cccc3Cl)CC2)CC1

>  <scaleUnit>
%

>  <inhibition>
3.8

$$$$
>  <compound>
O=C1NC(=Nc2ccccc2)/C(=C/c2ccco2)S1

>  <scaleUnit>
%

>  <inhibition>
47.9

$$$$
>  <compound>
COc1ccc(N=C2NC(=O)/C(=C/c3ccco3)S2)cc1

>  <scaleUnit>
%

>  <inhibition>
9.7

$$$$

Record inhibition per entry; entries follow.
1. Cc1ccc(NC(=O)c2ccc(NCCc3ccccc3)c([N+](=O)[O-])c2)cc1F
2. COc1ccc(-n2c(C)cc(/C=C3\SC(=S)NC3=O)c2C)cc1
3. COc1ccc(C(=O)C23CC4CC(C2)CC(C(=O)c2ccc(OC)cc2)(C4)C3)cc1
4. CC(=O)Nc1ccc(S(=O)(=O)/N=C2/NC(=O)/C(=C\c3ccco3)S2)cc1
5. Cc1ccc(N=C2NC(=O)/C(=C/C=C/c3ccco3)S2)cc1
6. COc1ccc2nc(N3CCCCC3)c(/C=C3\SC(=S)NC3=O)cc2c1
7. COc1ccccc1C(=O)Nc1ccc(C2=NNC(=O)CC2C)cc1 (centres undefined)

Response given:
[2.5, 32.3, -1.1, 41.2, 52.6, 53.6, 1.5]

---

Assay: inhibitors of HIV fusion peptide binding, primary screen, biochemical, uHTS, fluorescence dequenching (AID 1986)
Conditions: cell-free peptide binding, 30 min, at 20 µM, stronger effect = higher value
Among all 290,000 compounds or so, about 890 (0.31%) were called active. Shown is part of a subset that was picked to be rich in actives.
readoutName: inhibition (%)
Numbers only, in %.

>  <compound>
O=C(N/N=C/c1ccncc1)c1cc(C2CC2)nc2ccccc12

>  <readoutName>
inhibition

>  <scaleUnit>
%

>  <dataValue>
-0.8

$$$$
>  <compound>
COC(=O)Cn1c(=NC(=O)c2ccc(S(=O)(=O)N3CCc4ccccc4C3)cc2)sc2cc(OC)ccc21

>  <readoutName>
inhibition

>  <scaleUnit>
%

>  <dataValue>
-1.3

$$$$
>  <compound>
Cc1ccccc1NC(=O)CN1C(=O)S/C(=C\c2ccc(-c3cccc(C(=O)O)c3C)o2)C1=O

>  <readoutName>
inhibition

>  <scaleUnit>
%

>  <dataValue>
32

$$$$

Would you mind listing inhibition for each of the following compounds?
1. O=C(N/N=C/c1cccc([N+](=O)[O-])c1)c1cc(-c2ccc3c4c(cccc24)CC3)n[nH]1
2. Cc1ccc(C(=O)O)cc1-c1ccc(/C=C2\SC(=O)N(CC(=O)Nc3ccc4c(c3)OCO4)C2=O)o1
3. O=C(N/N=C/c1ccccc1C(=O)O)c1cc(-c2ccc3c4c(cccc24)CC3)n[nH]1
4. COc1ccc(C2NC(=O)c3ccccc3O2)cc1 (stereo not given)
5. Cc1ccc(NC(=O)CN2C(=O)S/C(=C\c3ccc(-c4cccc(C(=O)O)c4C)o3)C2=O)cc1

Response given:
-6.3
69.1
69.6
-1.3
63.2

Need inhibition for each of these compounds.
1. Cc1ccccc1OCc1nc(-c2ccc(-n3cccc3)cc2)no1
2. O=C(CCc1nc2ccccc2[nH]c1=O)N/N=C/c1ccccc1

Response given:
1. 3.2
2. -0.5
